Test system: HCC-2998 colon
measurement_notes: NCI tumour cell line growth inhibition, 48 h
Where a SMILES comes first, the peptide text is derived from it. [ ]: non-standard residue; d: D form. The star is where a group is joined. NMeF = CN[CH](Cc1ccccc1)C(=O)O; NMeV = CN[CH](C(=O)O)C(C)C; Boc = CC(C)(C)OC(=O)*
property_label: TGI

GET /value?item= `Cc1cccc(N2CCN(C(=S)c3ccc4c(c3)OCO4)CC2)c1` &field=TGI returns > 100 µM

Record summary for c1cc(CNC23CC4CC(CC(C4)C2)C3)cc(C[N+](Cc2cccc(CNC34CC5CC(CC(C5)C3)C4)c2)(Cc2cccc(CNC34CC5CC(CC(C5)C3)C4)c2)Cc2cccc(CNC34CC5CC(CC(C5)C3)C4)c2)c1 (configuration not stated) : reported TGI = 22.2 µM

The reported value for `COc1cc(-c2ccc3c(c2)NC(=O)/C3=C\c2ccc[nH]2)ccc1O` in terms of TGI is 1.84 µM

Short answer for `COc1ccc(/C=C/c2ccnc3ccccc23)c(OC)c1` : TGI was > 10 µM

TGI for CCCCC(O)(c1ccc(Cl)cc1)C(CN1CCOCC1)c1ccc(Cl)cc1 (configuration not stated) is 26.8 µM

Memo: `C=C1C(=O)O[C@H]2[C@H]1CC/C(COC(=O)C(=O)c1cn(Cc3ccccc3)c3ccccc13)=C\CC[C@@]1(C)O[C@@H]21` , reported TGI: 4.26 µM

What the record says about COC(=O)/C(=N\Nc1nnc(C)n1N)C(C#N)c1ccc(Cl)cc1 (configuration not stated) : TGI is > 100 µM

Given item `COc1ccc(Cn2cc3c(c2-c2ccccc2)CC(C)(C)c2cnoc2-3)cc1` , the value recorded as its TGI is > 100 µM

The compound O=C(O)C1OC(n2cc(F)c(=O)[nH]c2=O)CC1O (configuration not stated) showed TGI equal to > 77.4 µM

# TGI of `Cc1ccc(C(=O)CN(/C=C/C(=O)C(F)(F)F)c2ccc(S(N)(=O)=O)cc2)cc1` = > 100 µM

Lab book: TGI of CC(C)C(NC(=O)OC(C)(C)C)C(=O)N(C)C(Cc1ccccc1)C(=O)N(C)C(C(=O)O)C(C)C (stereo not drawn) (Boc-Val-[NMeF]-[NMeV]-OH; configuration not given here) noted as > 100 µM

Lab note: `CCOC(=O)CNc1c(OCc2ccccc2)c(=O)c1=O` gave TGI of > 100 µM

Just for reference, PubChem BioAssay (NCI) is where these values come from.
